Assignment: determine reported viability, T/C for the given compounds.
test system: 233499-124-R-J3-PDC spheroids with HUVEC/MSC, viability; experiment: Anticancer human tumor 233499-124-R-J3-PDC patient-derived colon adenocarcinoma cell line growth inhibition [PI3K]; conditions: second compound 0.316 µM; first compound 3.16 µM; active compounds read low;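 note: spheroids exposed to agents for seven days before readout; percent viability relative to DMSO vehicle control taken as 100%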
Quick note: give the figure in %, leave out the unit.

compound Cn1ncc(Cl)c1-c1cc(C(=O)NC(CN)Cc2cccc(F)c2)sc1Cl (stereo not given) + CC(Nc1ccc2c(c1)OCCn1cc(N3C(=O)OCC3C(F)F)nc1-2)C(N)=O , viability, T/C observed: 46.9

compound CC1(C)CCC(Nc2ncc(C(F)(F)F)c(-c3c[nH]c4c(P(C)(C)=O)c(C#N)ccc34)n2)CN1 (stereo not given) + COc1c(OCCCN2CCOCC2)ccc2c3n(c(=NC(=O)c4cnc(N)nc4)nc12)CCN3 , viability, T/C observed: 16.3

compound CCCS(=O)(=O)Nc1ccc(F)c(C(=O)c2c[nH]c3ncc(-c4ccc(Cl)cc4)cc23)c1F + CC(Nc1ncnc2nc[nH]c12)c1cc2cccc(Cl)c2c(=O)n1-c1ccccc1 , viability, T/C observed: 93.2

compound C=CC(=O)N1CCN(c2nc(=O)n(-c3c(C)ccnc3C(C)C)c3nc(-c4c(O)cccc4F)c(F)cc23)C(C)C1 (stereo not given) + COc1c(OCCCN2CCOCC2)ccc2c3n(c(=NC(=O)c4cnc(N)nc4)nc12)CCN3 , viability, T/C observed: 43.7

compound Cn1nccc1Nc1nccc(-c2ccn(C(CO)c3ccc(Cl)c(F)c3)c(=O)c2)n1 (stereo not given) + CC(Nc1ccc2c(c1)OCCn1cc(N3C(=O)OCC3C(F)F)nc1-2)C(N)=O , viability, T/C observed: 39.6
